- Assayed system: recombinant human NK3 receptor (Homo sapiens, UniProt P29371)
- Construct: expressed in transfected cells; host or cells: HEK293 cells (transient expression), membranes
- Sequence (P29371 whole entry): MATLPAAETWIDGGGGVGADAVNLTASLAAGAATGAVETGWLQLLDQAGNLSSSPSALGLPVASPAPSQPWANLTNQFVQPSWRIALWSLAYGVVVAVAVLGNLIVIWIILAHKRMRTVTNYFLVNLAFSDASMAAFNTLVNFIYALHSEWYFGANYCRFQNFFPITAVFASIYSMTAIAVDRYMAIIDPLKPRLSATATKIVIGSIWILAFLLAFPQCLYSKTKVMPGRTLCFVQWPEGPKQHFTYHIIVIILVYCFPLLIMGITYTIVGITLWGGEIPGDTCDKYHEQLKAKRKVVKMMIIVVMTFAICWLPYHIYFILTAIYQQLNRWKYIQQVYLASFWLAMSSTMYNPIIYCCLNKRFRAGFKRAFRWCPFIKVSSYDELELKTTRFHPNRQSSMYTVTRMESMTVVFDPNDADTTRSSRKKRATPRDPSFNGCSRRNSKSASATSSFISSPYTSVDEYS
- Measurement description: [3H]SR142801 competition binding assay
- Cond: membranes from HEK293 cells transiently expressing hNK3; [3H]SR142801 at its KD; 75 min RT; read-out: Data [μM] (affinity constant Ki, hNK3 receptor binding)

[
  {
    "Compound": "C[C@H](Oc1ccc(C#N)cn1)[C@H]1CN(C(=O)C2CCN(C(=O)C3CC(=O)C3)CC2)C[C@@H]1c1ccc(Cl)c(Cl)c1 (racemic) [Example 21]",
    "Ki / µM": 0.0021
  },
  {
    "Compound": "COCC(=O)N1CCC(C(=O)N2C[C@H]([C@H](C)Oc3ccc(C#N)cn3)[C@@H](c3ccc(Cl)c(Cl)c3)C2)CC1 (racemic) [Example 24]",
    "Ki / µM": 0.0036
  },
  {
    "Compound": "C[C@H](Oc1ccc(Cl)cn1)[C@H]1CN(C(=O)C2CCN(C(=O)C3(C)CC3)CC2)C[C@@H]1c1ccc(Cl)c(F)c1 [Example 53]",
    "Ki / µM": 0.0008
  }
]
